TARGET DESC: T1, human PSMA expressed with an N-terminal hexahistidine tag (6h.hPSMA, R&D) (human, UniProt Q04609 44-750)
T1 construct: Bought soluble protein; also called soluble human PSMA; human PSMA protein
T1 sequence (Q04609 other isoform, or with tags, fused parts or gaps limits assumed): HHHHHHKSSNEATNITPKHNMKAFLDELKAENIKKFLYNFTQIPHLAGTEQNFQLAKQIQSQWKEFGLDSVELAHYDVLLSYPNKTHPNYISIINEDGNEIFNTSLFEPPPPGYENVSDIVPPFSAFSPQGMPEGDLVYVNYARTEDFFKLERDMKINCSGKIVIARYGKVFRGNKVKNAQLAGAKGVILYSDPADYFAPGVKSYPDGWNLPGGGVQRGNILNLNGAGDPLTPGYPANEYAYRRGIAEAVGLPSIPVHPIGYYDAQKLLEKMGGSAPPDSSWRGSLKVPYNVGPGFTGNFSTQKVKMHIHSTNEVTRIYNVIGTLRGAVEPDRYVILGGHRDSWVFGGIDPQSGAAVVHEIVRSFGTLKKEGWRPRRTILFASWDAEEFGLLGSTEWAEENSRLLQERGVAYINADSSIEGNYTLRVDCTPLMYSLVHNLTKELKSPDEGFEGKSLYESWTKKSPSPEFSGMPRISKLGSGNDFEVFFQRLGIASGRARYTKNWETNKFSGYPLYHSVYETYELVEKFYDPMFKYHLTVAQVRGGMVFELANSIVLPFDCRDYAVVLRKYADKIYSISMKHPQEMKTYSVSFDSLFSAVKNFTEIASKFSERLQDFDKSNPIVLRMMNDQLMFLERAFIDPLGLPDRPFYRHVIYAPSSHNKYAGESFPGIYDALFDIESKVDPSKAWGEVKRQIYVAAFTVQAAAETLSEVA
ASSAY INFO: SPR Biacore T-200, 37 C, antibody-capture (anti-human Fc), 6h.hPSMA as analyte
Each entry below carries its recorded t1/2.
# value in min; strip the unit string

The examples below pair each entry with its known result.
1) H1H11803P2 (antibody, human IgG1, V domains shown, human IgG1) VH: QVQLVESGGGVVQPGRSLRLSCAASGFTFSSYGMHWVRQAPGKGLEWVAVIWYDGNNKYYADSVKGRFTISRDNSKKTLYLQMTSLRAEDTAVYYCARDQYYDILTADNTLDYWGQGTLVTVSS VL: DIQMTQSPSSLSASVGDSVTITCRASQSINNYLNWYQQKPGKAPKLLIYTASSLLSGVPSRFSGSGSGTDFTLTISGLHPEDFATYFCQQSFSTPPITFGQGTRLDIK : 19
2) H1H11800P2 (antibody, human IgG1, V domains shown, human IgG1) VH: QVQLVESGGGVVQPGRSLRLSCAASGFTFSSYGMHWVRQAPGKGLEWVAVISYAGNNKYYVDSVKGRFTISRDNSKNTLYLQMNSLRAEDTAVYYCAKDPYYDFLTGSDYFDYWGQGTLVTVSS VL: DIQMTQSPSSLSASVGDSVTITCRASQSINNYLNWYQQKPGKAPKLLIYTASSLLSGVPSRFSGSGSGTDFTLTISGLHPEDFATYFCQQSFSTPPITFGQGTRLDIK : 282
3) H1H11792P2 (antibody, human IgG1, V domains shown, human IgG1) VH: QVQLVESGGGVVQPGRSLRLSCAASGFTFSSYGMHWVRQPPGKGLEWVAIMSYDGSNKYYADSVKGRFTISRDNSKNTLYLQMNSLRVEDTAVYYCAKDQYYDFLTFDYTLDYWGQGTLVTVSS VL: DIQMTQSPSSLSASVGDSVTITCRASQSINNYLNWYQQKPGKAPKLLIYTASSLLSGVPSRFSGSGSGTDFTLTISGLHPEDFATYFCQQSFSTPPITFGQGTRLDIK : 119
4) H1H11835P2 (antibody, human IgG1, V domains shown, human IgG1) VH: EVQLVESGGGLVQSGGSLRLSCEASGFTFSNYWMTWIRQGPGKGLEWVANIKPDGTENYYVDSVKGRFTISRDNARNSLYLQMTSLKAEDTAVYYCGRMIQFVINIWGQGTLVTVSS VL: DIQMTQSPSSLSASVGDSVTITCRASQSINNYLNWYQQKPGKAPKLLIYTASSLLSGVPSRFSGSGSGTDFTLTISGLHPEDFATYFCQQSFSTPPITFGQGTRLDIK : 4.7
5) H1H11838P2 (antibody, human IgG1, V domains shown, human IgG1) VH: QVQLVESGGGVVQPGRSLRLSCAASGFTFSSYGMHWVRQAPGKGLEWVAFMSYDGSNKFYSDSVKGRFTISRDNSRKMLFLQMNNLRAEDTAVYYCARDQYYDFLTDHGVFDYWGQGTLVTVSS VL: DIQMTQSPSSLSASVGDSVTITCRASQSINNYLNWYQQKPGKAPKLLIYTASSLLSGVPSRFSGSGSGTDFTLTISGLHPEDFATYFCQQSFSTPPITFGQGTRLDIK : 24.5

Short answer for H1H11836P2 (antibody, human IgG1, V domains shown, human IgG1) VH: QVQLVESGGGVVQPGRSLRLSCAASGFTFRSYGMHWVRQAPGKGLEWVAFISYDESNKHQADSVKGRFTISRDNSKNTLYLQMNSLRAEDTAVYFCAKDQYYDFLTAYDTLDYWGQGTLVTVSS VL: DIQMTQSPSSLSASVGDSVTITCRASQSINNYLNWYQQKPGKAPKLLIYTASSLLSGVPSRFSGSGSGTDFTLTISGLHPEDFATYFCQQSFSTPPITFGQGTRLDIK : t1/2 was 41.3

Value source: patent US20190127480A1
